Attribution: PubChem BioAssay (NCATS)

assay-details: Quantitative High-Throughput drug screen in 47 multiple myeloma cell lines against the NCATS MIPE library collection: KMS12BM_JCRB cell viability assay (AID 1918971); note: nearly all actives have a fitted effect of over 35% in size
conditions: KMS12BM myeloma viability, CellTiter-Glo ATP, 48 h; series mostly up to 45.8 µM
Records with an inconclusive call do not appear. The source made the active and inactive calls. Calls come from the whole dose curve; as a rule, active = well fitted cell-killing curve with a large enough effect; inconclusive = small, poorly fitted or top-dose-only effect, or effect the other way; inactive = no such curve, though single readings can be large or run the other way.
I would appreciate it if you answered using one of these outcomes: True (active), False (inactive)

Sample answers from the record:
Req: // outcome(item) with item = C=C1C(=O)OC2C=C(C)CCC=C(C)CCC12 (stereo not drawn)
Resp: True

Req: Each compound tested received a call. Report the one for O=C(NCc1ccncc1)C12C[C@H]3C[C@@H](C1)CC(c1ccc(Cl)cc1)(C3)C2 .
Resp: True

Req: Check the results log: what was the call for COc1ccc(C2CC(c3ccccc3)=NN2c2ccc(S(N)(=O)=O)cc2)cc1 (stereo not drawn) ?
Resp: True

Req: Short answer needed: outcome of this test for CCOC(=O)C1=C(N)Oc2ccc(Br)cc2C1C(C#N)C(=O)OCC (stereo not drawn) ?
Resp: True

Req: Which outcome was assigned to COc1ccc(C2Sc3ccccc3N(CCN(C)C)C(=O)C2OC(C)=O)cc1 (stereo not drawn) in this test?
Resp: True

New cases:
Req: For this compound, state the assay outcome: CC(=O)O[C@]1(C(C)=O)CC[C@@H]2[C@@H]3C[C@H](C)C4=CC(=O)CC[C@]4(C)[C@H]3CC[C@@]21C
Resp: True

Req: Outcome? O=C(NC1CCOCC1)c1ccc(-c2cc(-c3cn[nH]c3-c3ccccn3)ccn2)cc1
Resp: False

Req: Outcome logged for CO[C@H]1C(=O)[C@]2(C)[C@@H](OC)C[C@H]3OC[C@@]3(OC(C)=O)[C@H]2[C@H](OC(=O)c2ccccc2)[C@]2(O)C[C@H](OC(=O)[C@H](O)[C@@H](NC(=O)OC(C)(C)C)c3ccccc3)C(C)=C1C2(C)C in this assay:
Resp: False

====

System: MKL-1
assay-details: qHTS assay to identify novel small-molecules to repurpose for Merkel cell carcinoma treatment (AID 1296009); note: nearly all actives have a fitted effect of over 60% in size
conditions: MCC and control cell lines, CellTiter-Glo viability, 72 h; series mostly up to 46 µM
Results filed as inconclusive are left out. Active and inactive are the calls of the source. Calls follow the shape of the dose curve; as a rule, active = well fitted inhibition curve with a large enough effect; inconclusive = small, poorly fitted or top-dose-only effect; inactive = flat fitted curve, though single readings scatter.
Mark one answer only. Choices: active, inactive

Some entries whose results are on file:
Req: Hey, what did the test say about C[C@H](NC(=O)C(=O)Nc1ccccc1C(C)(C)C)C(=O)N[C@@H](CC(=O)O)C(=O)COc1c(F)c(F)cc(F)c1F ?
Resp: active

Req: Recorded test outcome, item COc1ccccc1N1CCN(CCCNc2cc(=O)n(C)c(=O)n2C)CC1
Resp: inactive

Req: Can you look up the reported call for NC(=O)c1ccc2nc(-c3ccc(Oc4ccc(Cl)cc4)cc3)[nH]c2c1 for me?
Resp: inactive

Req: Could you kindly confirm the outcome this assay logged for O=C1NC(=O)C(=Cc2cccc(C(F)(F)F)c2)S1 ?
Resp: inactive

Req: Would you mind telling me which call this test gave N#Cc1ccc(NC(=O)Nc2ccccc2Br)c2n[nH]nc12 ?
Resp: inactive

---
Req: Please state the recorded outcome for this compound: Cc1cc(OCCCc2c(C(=O)O)n(Cc3cccnc3)c3c(-c4c(COc5ccc(N6CCN([S+](C)(=O)[O-])CC6)cc5)nn(C)c4C)cccc23)cc(C)c1Cl
Resp: inactive

Req: Identify the outcome logged in this assay for the compound shown: CCCCCCCCCCCC1=C(O)C(=O)C=C(O)C1=O
Resp: active

Req: Status in this test for O=C1c2ccccc2-[n+]2ccc3c([nH]c4ccccc43)c21 ?
Resp: active

Req: Short answer needed: outcome of this test for OC[C@H]1O[C@@H](n2cnc3c2NC=NC[C@@H]3O)C[C@H]1O ?
Resp: inactive

Req: GET /call?item= CNC(=O)c1ccc2cc(C3(O)CCn4cncc43)ccc2c1 (centres undefined) returns the recorded outcome of this test.
Resp: inactive
